Target: androgen receptor (AR) (Homo sapiens, UniProt P10275, T878A)
Construct: LNCaP cells were transiently transfected with the PSA (6.1 kb)-luciferase reporter for 24 h; endogenous in cells; host or cells: LNCaP
Sequence (P10275 whole entry T878A): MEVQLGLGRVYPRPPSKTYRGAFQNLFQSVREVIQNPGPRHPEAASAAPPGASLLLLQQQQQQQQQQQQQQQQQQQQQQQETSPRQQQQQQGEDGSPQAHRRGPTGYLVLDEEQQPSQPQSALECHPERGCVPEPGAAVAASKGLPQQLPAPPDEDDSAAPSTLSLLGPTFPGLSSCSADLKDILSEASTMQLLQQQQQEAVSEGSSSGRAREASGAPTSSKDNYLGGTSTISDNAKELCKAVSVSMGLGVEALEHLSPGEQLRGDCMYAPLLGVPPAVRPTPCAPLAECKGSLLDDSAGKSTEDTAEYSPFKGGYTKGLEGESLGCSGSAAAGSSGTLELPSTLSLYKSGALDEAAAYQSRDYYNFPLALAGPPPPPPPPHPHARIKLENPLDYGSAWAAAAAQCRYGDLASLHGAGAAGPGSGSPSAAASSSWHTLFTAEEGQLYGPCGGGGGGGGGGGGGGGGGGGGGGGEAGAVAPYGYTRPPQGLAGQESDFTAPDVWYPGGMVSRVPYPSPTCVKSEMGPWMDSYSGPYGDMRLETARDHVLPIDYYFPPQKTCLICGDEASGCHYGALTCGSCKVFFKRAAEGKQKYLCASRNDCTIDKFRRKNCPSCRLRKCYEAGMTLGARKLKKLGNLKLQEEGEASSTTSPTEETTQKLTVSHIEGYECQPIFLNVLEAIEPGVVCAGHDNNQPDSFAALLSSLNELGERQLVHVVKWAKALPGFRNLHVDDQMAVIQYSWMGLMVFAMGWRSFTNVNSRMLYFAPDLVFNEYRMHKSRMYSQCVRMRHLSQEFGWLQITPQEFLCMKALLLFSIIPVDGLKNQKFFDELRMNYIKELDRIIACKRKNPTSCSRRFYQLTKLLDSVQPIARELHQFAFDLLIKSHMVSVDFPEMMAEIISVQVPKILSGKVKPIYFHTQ
Assay: Androgen-induced PSA (6.1 kb)-luciferase reporter assay in LNCaP cells
Assay type: cell-based
Settings: LNCaP cells transfected with PSA (6.1 kb)-luciferase reporter, R1881 1 nM, 24 h; read-out: PSA-Luc IC50 Range
pIC50: −log10 of the molar value.
# pIC50 listing for each entry below

Record excerpt, results attached:
>>> print(df.to_string())
                                   compound  measurement_name        result
0  CC(C)(c1ccc(Nc2ncc(CNS(C)(=O)=O)o2)cc1)c1cc(Cl)c(OCCCl)c(Cl)c1             pIC50  5.70 to 6.30
1  CC(C)(c1ccc(OCc2ncc(NS(C)(=O)=O)s2)cc1)c1cc(Cl)c(OCCCl)c(C#N)c1             pIC50        > 6.30
2  CC(C)(c1ccc(OCc2cn(S(C)(=O)=O)cn2)cc1)c1cc(Cl)c(OCCCCl)c(Cl)c1             pIC50  5.70 to 6.30

Let's switch to this compound now.
GET /values?readout=pIC50&system=androgen receptor (AR) (Homo sapiens, UniProt P10275, T878A)&item= CC(C)(c1ccc(OCc2nc(C(N)=O)co2)cc1)c1cc(Cl)c(OCCCl)c(C#N)c1
< 5.70

###

Measured microsomal CLint at 1 μM, listed per entry.
Experiment: Microsomal stability assay, mouse liver microsomes
Type: in vitro ADME
Conditions: mouse, liver microsomes, pH 7.4, mouse liver microsomes, 1 μM compound, 0.5 mg/mL protein, 37° C.; read-out: MLM +30/− NADPH: Clint (μL/min/mg protein)

# example entries with known answers
                                   compound              result
0  CC(C)(c1ccc(N2C(=O)N(S(C)(=O)=O)C(C)(C)C2=O)cc1)c1cc(Cl)c(OCCCl)c(Cl)c1      < 12 µL/min/mg
1  CC(Oc1ccc(C(C)(C)c2cc(Cl)c(OCCCl)c(Cl)c2)cc1)c1ocnc1S(C)(=O)=O (stereo not drawn)  12 to 48 µL/min/mg
2  CC(C)S(=O)(=O)Nc1nc(COc2ccc(C(C)(C)c3cc(Cl)c(OCCCl)c(C#N)c3)cc2)co1      < 12 µL/min/mg
3  CC(C)(c1ccc(OCc2coc(NS(C)(=O)=O)n2)cc1)c1cc(Cl)c(OCCCl)c(C#N)c1      < 12 µL/min/mg
4  CC(C)(c1ccc(OCc2cc(NS(C)(=O)=O)ccn2)cc1)c1cc(Cl)c(OCCCl)c(C#N)c1      < 12 µL/min/mg
5  CC(C)(c1ccc(OCc2ncc(NS(C)(=O)=O)s2)cc1)c1cc(Cl)c(OCCCl)c(C#N)c1  12 to 48 µL/min/mg

Give the measured microsomal CLint at 1 μM of CC(C)(c1ccc(OCc2csc(S(C)(=O)=O)n2)cc1)c1cc(Cl)c(OCCCl)c(C#N)c1 .
12 to 48 µL/min/mg

Query: microsomal CLint at 1 μM; subject: CC(C)(c1ccc(OCc2coc(N)n2)cc1)c1cc(Cl)c(OCCCl)c(C#N)c1
≥ 48 µL/min/mg

###

Item-by-item account of microsomal CLint at 1 μM
Experiment: Microsomal stability assay, mouse liver microsomes
Type: in vitro ADME
Details: mouse, liver microsomes, pH 7.4, mouse liver microsomes, 1 μM compound, 0.5 mg/mL protein, 37° C.; read-out: MLM +30/− NADPH: Clint (μL/min/mg protein)

Solved cases (2 shown):
>>> print(df.to_string())
                                   molecule              result
0  CC(C)(c1ccc(OCc2[nH]cnc2S(C)(=O)=O)cc1)c1cc(Cl)c(OCCCl)c(Cl)c1 [Compound A71]      < 12 µL/min/mg
1  CC(C)(c1ccc(OCc2nc(S(C)(=O)=O)cs2)cc1)c1cc(Cl)c(OCCCl)c(C#N)c1 [Compound A136]  12 to 48 µL/min/mg

Which microsomal CLint at 1 μM reading was recorded for the molecule CC(Oc1ccc(C(C)(C)c2cc(Cl)c(OCCCl)c(C#N)c2)cc1)c1ncoc1S(C)(=O)=O (stereo not drawn) [Compound A79] ?
≥ 48 µL/min/mg

For the molecule shown here, Cc1cc(C(C)(C)c2ccc(OC(C)c3scnc3S(C)(=O)=O)cc2)cc(C#N)c1OCCCl (stereo not drawn) [Compound A70] , give the reported microsomal CLint at 1 μM.
≥ 48 µL/min/mg

What value of measured microsomal CLint at 1 μM is listed for CC(C)(c1ccc(OCc2ncc(S(C)(=O)=O)o2)cc1)c1cc(Cl)c(OCCCl)c(Cl)c1 [Compound A66] ?
< 12 µL/min/mg

Can you share its microsomal CLint at 1 μM? I mean this molecule: Cc1oc(S(C)(=O)=O)nc1COc1ccc(C(C)(C)c2cc(Cl)c(OCCCl)c(C#N)c2)cc1 [Compound A80]
12 to 48 µL/min/mg

Looking for the measured microsomal CLint at 1 μM of Cc1cc(C(C)(C)c2ccc(OCc3csc(S(C)(=O)=O)n3)cc2)cc(C#N)c1OCCCl [Compound A86] , can you help?
12 to 48 µL/min/mg

Record request: microsomal CLint at 1 μM value, item CC(Oc1ccc(C(C)(O)c2cc(Cl)c(OCCCl)c(C#N)c2)cc1)c1ocnc1S(C)(=O)=O (stereo not drawn) [Compound A95]
≥ 48 µL/min/mg

Look up microsomal CLint at 1 μM: CC(C)(c1ccc(OCc2coc(S(C)(=O)=O)c2)cc1)c1cc(Cl)c(OCCCl)c(C#N)c1 [Compound A208]
< 12 µL/min/mg

Tell me the measured microsomal CLint at 1 μM of CC(C)(c1ccc(NC(=O)c2coc(S(C)(=O)=O)n2)cc1)c1cc(Cl)c(OCCCl)c(C#N)c1 [Compound A96] , please.
≥ 48 µL/min/mg

Request the reported microsomal CLint at 1 μM associated with COC(=O)Nc1nc(COc2ccc(C(C)(C)c3cc(Cl)c(OCCCl)c(C#N)c3)cc2)co1 [Compound A156]
12 to 48 µL/min/mg

For [2H]c1c([2H])c(C(C)(C)c2cc(Cl)c(OCCCl)c(C#N)c2)c([2H])c([2H])c1OCc1ccnc(NS(C)(=O)=O)n1 [Compound A201] , what is its reported microsomal CLint at 1 μM?
< 12 µL/min/mg

Given CC(C)(c1ccc(OCc2nnccc2NS(C)(=O)=O)cc1)c1cc(Cl)c(OCCCl)c(C#N)c1 [Compound A101] , state its recorded microsomal CLint at 1 μM.
12 to 48 µL/min/mg

Reported microsomal CLint at 1 μM for CC(C)(c1ccc(OCc2ncc(S(C)(=O)=O)o2)cc1)c1cc(Cl)c(OCCCl)c(C#N)c1 [Compound A153] : what is it?
12 to 48 µL/min/mg

For CC(C)(c1ccc(OCc2nc(C#N)cs2)cc1)c1cc(Cl)c(OCCCl)c(C#N)c1 [Compound A172] , what is its reported microsomal CLint at 1 μM?
< 12 µL/min/mg

###

# key: entry, value: pIC50
Molecular target: androgen receptor (AR) (Homo sapiens, UniProt P10275, T878A)
Construct: LNCaP cells were transiently transfected with the PSA (6.1 kb)-luciferase reporter for 24 h; endogenous in cells; host or cells: LNCaP
Assay: Androgen-induced PSA (6.1 kb)-luciferase reporter assay in LNCaP cells
Assay type: cell-based
Conditions: LNCaP cells transfected with PSA (6.1 kb)-luciferase reporter, R1881 1 nM, 24 h; read-out: PSA-Luc IC50 Range
pIC50: −log10 of the molar value.

>>> df
                            smiles_notation                              assay_system  measurement_name        result
0  Cn1c(COc2ccc(C(C)(C)c3cc(Cl)c(OCCCl)c(C#N)c3)cc2)ccc1S(C)(=O)=O  androgen receptor (AR) (Homo sapiens, UniProt P10275, T878A)             pIC50  5.70 to 6.30
1  Cc1nc(S(C)(=O)=O)c(COc2ccc(C(C)(C)c3cc(Cl)c(OCCCl)c(Cl)c3)cc2)o1  androgen receptor (AR) (Homo sapiens, UniProt P10275, T878A)             pIC50  5.70 to 6.30
2  C[C@@](O)(c1ccc(OCc2ocnc2S(C)(=O)=O)cc1)c1cc(Cl)c(OCCCl)c(C#N)c1  androgen receptor (AR) (Homo sapiens, UniProt P10275, T878A)             pIC50        < 5.70
3  Cc1cc(C(C)(C)c2ccc(OCc3ocnc3S(C)(=O)=O)cc2)cc(C#N)c1OCCCl  androgen receptor (AR) (Homo sapiens, UniProt P10275, T878A)             pIC50        > 6.30
4  CC(C)(c1ccc(OCc2cncc(NS(C)(=O)=O)n2)cc1)c1cc(Cl)c(OCCCl)c(C#N)c1  androgen receptor (AR) (Homo sapiens, UniProt P10275, T878A)             pIC50        > 6.30

API: value(readout=pIC50, system=androgen receptor (AR) (Homo sapiens, UniProt P10275, T878A)) for record CC(C)(c1ccc(OCc2nc(NS(C)(=O)=O)nc3c2CCOC3)cc1)c1cc(Cl)c(OCCCl)c(C#N)c1
5.70 to 6.30

Missing value: pIC50, androgen receptor (AR) (Homo sapiens, UniProt P10275, T878A), entry CC(C)(c1ccc(OCc2noc(S(C)(=O)=O)n2)cc1)c1cc(Cl)c(OCCCl)c(C#N)c1 . Fill in?
5.70 to 6.30
